Test system: MS2 coat protein
Test: apparent KD of MS2 coat protein; designed switch direction (-1 OFF switch, 1 ON switch): -1; higher = weaker reporter binding
Conditions: Eterna round: R95; input ligand: microRNA oligo, concentration not stated
QUANTITY: apparent KD of MS2 coat protein (nM)
Please give a number only; it is taken to be in nM.

Given item GAUUAUGCGAGCUUUAGGGACAUGAGGAUCACCCAUGUUCGUCUUGUUGAUCUAGGUGCGCUAACAUACCUAAAUCU [JMF 48] (puzzle: Sensor v3, turn-off variant 1) , the value recorded as its apparent KD of MS2 coat protein is 30.5

Given item AAAAGGCUAGGAUAUACAUGAGGAUCACCCAUGUGUACUGGACAUGCGGUAUGCGGAUGUAGAAGGAGUAUAAA [Esrere] (puzzle: Exclusion 3) , the value recorded as its apparent KD of MS2 coat protein is 22.4

Given item UAUUUCAUCUAUGGGAGUAACAUGAGGAUCACCCAUGUAUGUCUUGUUUUUUGUUCGUCUAAGACUUUCUGAUCAGU [JR_SV3TOV1_Sub031] (puzzle: Sensor v3, turn-off variant 1) , the value recorded as its apparent KD of MS2 coat protein is 45.5

---

System: MS2 coat protein
Assay: apparent KD of MS2 coat protein; designed switch direction (-1 OFF switch, 1 ON switch): -1; higher = weaker reporter binding
Conditions: input ligand: none
Please respond with reported apparent KD of MS2 coat protein for every item in the list.
Please give a number only; it is taken to be in nM.

Given item GAUCCUCGGGUUAGGAUAUCGAGGAUGUACGUCAGCGAGAAGGAACAUGAGGAUCACCCAUGUUGCUUAGCAAG [BmEX4 A.18] (Eterna round: R97, puzzle: Brourd's mod of Exclusion 4) , the value recorded as its apparent KD of MS2 coat protein is 19.5

Given item CCAUAGGGAGGAUAUCCAAUAUAUGACAUGAGGAUCACCCAUGUUUCCACUCGUACCUCCGGAGAAGGCCCAUACC [Ex5 #9] (Eterna round: R97, puzzle: Exclusion 5) , the value recorded as its apparent KD of MS2 coat protein is 27

Given item CAGUACUGAGGAUAUACAUGAGGAUCACCCAUGUUGAGAUGAAAAGAAAUAGUUUCAUGUAGAAGGCGGUGCUG [JR_Ex3_Sub048] (Eterna round: R97, puzzle: Exclusion 3) , the value recorded as its apparent KD of MS2 coat protein is 118

---

Test system: MS2 coat protein
Assay: apparent KD of MS2 coat protein; designed switch direction (-1 OFF switch, 1 ON switch): 1; higher = weaker reporter binding
Details: input ligand: none
QUANTITY: apparent KD of MS2 coat protein (nM)
Please give a number only; it is taken to be in nM.

Given item UUAAUGAUGAUAGGAUAUACAUGAGGAAUCCUCGUAGAAGGAUCAUGACAUGAGGAUCACCCAUGUAACGCUCAGAAGAGCGUA [Mat - Same State NG 1 - JL mod - D42] (Eterna round: R96, puzzle: Same State NG 1) , the value recorded as its apparent KD of MS2 coat protein is 78.3

Given item GAAACAUGACGAGGAUAUGGAACAUGAGGAUCACCCAUGUAUGUUCCAUAACGCGAAUGACGAAUCCAGAAGGCGUCGUGAAAG [Mat - Same State NG 2 - JL mod - D28] (Eterna round: R96, puzzle: Same State NG 2) , the value recorded as its apparent KD of MS2 coat protein is 233

---

System: MS2 coat protein
Test: apparent KD of MS2 coat protein; higher = weaker reporter binding
Conditions: Eterna round: R107; input ligand: tryptophan 2.4 mM
Please respond with reported apparent KD of MS2 coat protein for every item in the list.
Please give a number only; it is taken to be in nM.

Given item AGUAGUUGACAAAAGUCAGCUACAACUGAAGGAGCGGGUGGGUGCCCAGGUAGGUCGCAGGAACAUGAGGAUCACCCAUGUAUAA [ArgAS 3 #BothOrNeither #OpenEnded] , the value recorded as its apparent KD of MS2 coat protein is 18.5

Given item GCACCAGGUACGGAUACCAGCUGCCAGCGUUACAUGAGGAUCACCCAUGUGAUCUGAAGUAGCCCUUGGCAGCUGUACCUGGUGC [SSThB NP+V+V2 #4 +-Same Structure] , the value recorded as its apparent KD of MS2 coat protein is 62

Given item GAUCUGUCGGGUGAUACCAGCCUCGGCGCGUCUCGCGCUGAACAUGAGGAUCACCCAUGUGGCCCUUGGCAGCACAUGACAAAUC [Ditere] , the value recorded as its apparent KD of MS2 coat protein is 598

Given item UUAUGCAGGUCGGCCGCCACUACACACAUGAGGAUCACCCAUGUAGUUACUGGGUGAAGUGGCAGUAGGACCGGGACCUGCACAU [Brourdmod13] , the value recorded as its apparent KD of MS2 coat protein is 465

Given item UCCAUCGGCGGAAGCCGAUGGUUUACAGAAGGAGCGUAGGAAACUACAGGUAGGUCGCUGGACAUGAGGAUCACCCAUGUGUUUU [SSAA #12] , the value recorded as its apparent KD of MS2 coat protein is 20.8

Given item CAGGCCUUGCCCGGUGUUCCGAAAGUGGAAGGAGCGCACAUUGGUGCAGGUAGGUCGCCACAUGAGGAUCACCCAUGUCUAGGCC [Aveatti] , the value recorded as its apparent KD of MS2 coat protein is 50.2

Given item AUACAUGAGGAUCACCCAUGUUACACUGAAGGAGCGACAUGUUUGUCAGGUAGGUCGCAGUGAAGUUUAAUAAAUAGUUGAUCUU [#07 Same State - Arginine A] , the value recorded as its apparent KD of MS2 coat protein is 37

Given item GGCACCAGGAGAAGGAGCGUGAAGACAUGAGGAUCACCCAUGUAGAGGCCCGUACAGGGUUCGCAGGUAGGUCGCUCCUGGUGCC [#1 Same State - Arginine B Attempt #12 (HarryS)] , the value recorded as its apparent KD of MS2 coat protein is 18.8

Given item AGCUCUGAUACGGCCGCCACUAGAUGGUGUUGUAAGAGACGCCUACAUGAGGAUCACCCAUGUCAUAGGACCGGGUAUAAAUACA [theeternabot_sameState_MS2_Trp_B_8] , the value recorded as its apparent KD of MS2 coat protein is 18.2

Given item AUGCCGGGCCGAAGGAGCGCAAUAGAAUGACAUGAGGAUCACCCAUGUGUGUGAUGUGGGUUGCAGGUAGGUCGCGGCCCGGCAU [#12 Exclusion - Arginine B] , the value recorded as its apparent KD of MS2 coat protein is 68.3

Given item GCACAUGAGGAUCACCCAUGUAUUACUGAAGGAGCGAGACAGAACUCAGGUAGGUCGCAGACGGCGGAAUCGCCGACGACAUGGG [Exclusion Arginine A GF23] , the value recorded as its apparent KD of MS2 coat protein is 27.7

---

Tested on: MS2 coat protein
Test: apparent KD of MS2 coat protein, switch OFF state (with FMN for OFF switches, without FMN for ON switches); designed switch direction (-1 OFF switch, 1 ON switch): 1; higher = weaker reporter binding
Conditions: FMN input: 0 or 200 uM; Eterna round: R93 (includes R88 designs)
QUANTITY: apparent KD of MS2 coat protein (nM)
Please give a number only; it is taken to be in nM.

Given item AAAUAAAUGACUAAGGAUAUAUCGAAGAAAACAUGAGGAUCACCCAUGUGAUAAUAAAAAGGGUGGUAGAAGGUAGUCAACAAAC [Mod 4 of Pariah 4 by Hyphema in Round 1] , the value recorded as its apparent KD of MS2 coat protein is 88

Given item AAGAAACAUGAGGAUCACCCAUGUAGAAAUAUGGGAGGAUAUACAAAGACGAAAGUCAAAGUAGAAGGCCUAAGAA [Mat - Same State 1 - Meechl mod - D129] , the value recorded as its apparent KD of MS2 coat protein is 63.2

Given item UAAAAACAUGAGGAUCACCCAUGUAGAAAUAUGGGAGGAUAUACAAAGACGAAAGUCAAAGUAGAAGGCCUAAAAU [Mat - Same State 1 - Eli mod - 32] , the value recorded as its apparent KD of MS2 coat protein is 62.2

Given item AAAACACAUGAGGAUCACCCAUGUAGAAAUACGGGAGGAUAUACGAAAACGAAAGACAAAGUAGAAGGCCUAAAAG [saturn 7] , the value recorded as its apparent KD of MS2 coat protein is 53

Given item GGAAAACAUGAGGAUCACCCAUGUAGAAAUAUGGGAGGAUAUACAAAGACGAAAGUCAAAGUAGAAGGCCUAAAAG [salish99-SS1-084] , the value recorded as its apparent KD of MS2 coat protein is 60.2

Given item AGAAAUAAAAAUGAGGAUAUGCAAAAGAAAACAUGAGGAUCACCCAUGUAAAAGAAAAUAAAUGGGCAGAAGGCAUGAAAUAAAGA [Helter Skelter 3] , the value recorded as its apparent KD of MS2 coat protein is 75.1

Given item UUUAAUUGCGGGCAGGAUAUGUAUUAAAAUACAUGAGGAUCACCCAUGUGCGGGUGUAACACCCGACAGAAGGGCCAAUCGCGAC [Bearisan] , the value recorded as its apparent KD of MS2 coat protein is 300

Given item AAUACACAUGGUCAGGAUAUCGCAGCUAGGACAUGAGGAUCACCCAUGUCGUACGUAACCGUAAAUGAGAAGGGACAGGGUGACC [JR_SS002_Sub408] , the value recorded as its apparent KD of MS2 coat protein is 54.1

Given item AAAAGAGCGACACAGGAUAUGUUGACUCUAACAUGAGGAUCACCCAUGUGCAUUUAGGGUCGUGCGCAGAAGGGUGUAGCUCGGA [Laesbibiti] , the value recorded as its apparent KD of MS2 coat protein is 24.7

Given item UAUAGACAUGAGGAUCACCCAUGUAGAAUUAUGGGAGGAUAUACAAAGACGAGAGUCAGAGUAGAAGGCCUAGGAG [salish99-ss1-153] , the value recorded as its apparent KD of MS2 coat protein is 63.4

Given item CUGGACAUAGUACAGGAUAUAUGAAUAGUCACAUGAGGAUCACCCAUGUCCAUUUAUAUGGGCACAUAGAAGGGUGGUAGUUAAG [Mat - Same state - Malcolm Mod - D139] , the value recorded as its apparent KD of MS2 coat protein is 41.2

Given item AAUACACAUGAGGAUCACCCAUGUAGAAACAAGUCAGGAUAUCCGAUCCACAUGUGAUAAGGAGAAGGGACAAUAA [SS 1 Tesla 7] , the value recorded as its apparent KD of MS2 coat protein is 163
